// pKi lookup, one value per entry
# Tested On: Adenosine receptor A1 (Rattus norvegicus)
# Sequence (P25099 whole entry): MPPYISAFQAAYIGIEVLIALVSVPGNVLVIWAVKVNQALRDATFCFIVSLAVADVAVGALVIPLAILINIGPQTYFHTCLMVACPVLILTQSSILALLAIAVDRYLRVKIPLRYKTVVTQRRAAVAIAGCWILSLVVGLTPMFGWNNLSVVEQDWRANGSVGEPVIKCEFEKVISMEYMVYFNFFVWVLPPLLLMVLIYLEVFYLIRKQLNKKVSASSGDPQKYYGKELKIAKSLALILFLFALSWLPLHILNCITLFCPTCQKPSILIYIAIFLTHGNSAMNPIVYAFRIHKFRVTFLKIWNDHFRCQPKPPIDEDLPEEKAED
Scale note: pKi = -log10(concentration in M).

[
  {
    "Compound": "CCNC(=O)[C@H]1OC(n2cnc3c(N)nc(C#Cc4ccc(N)cc4)nc32)[C@H](O)[C@@H]1O (stereo not given in full)",
    "pKi": 6.22
  },
  {
    "Compound": "CCNC(=O)[C@H]1OC(n2cnc3c(N)nc(C#Cc4ccc(OC)cc4)nc32)[C@H](O)[C@@H]1O (stereo not given in full)",
    "pKi": 6.38
  },
  {
    "Compound": "CCNC(=O)[C@H]1OC(n2cnc3c(N)nc(C#Cc4nccs4)nc32)[C@H](O)[C@@H]1O (stereo not given in full)",
    "pKi": 7.07
  }
]

Moving on to the next compound.
Inquiry: Answer with pKi of CCNC(=O)[C@H]1O[C@@H](n2cnc3c(N)nc(C#CCCCc4ccccc4)nc32)[C@H](O)[C@@H]1O measured for Adenosine receptor A1 (Rattus norvegicus).
Reply text: 6.68

---

# Tested On: Adenosine receptor A2a (Rattus norvegicus, UniProt P30543)
# Sequence (P30543 whole entry): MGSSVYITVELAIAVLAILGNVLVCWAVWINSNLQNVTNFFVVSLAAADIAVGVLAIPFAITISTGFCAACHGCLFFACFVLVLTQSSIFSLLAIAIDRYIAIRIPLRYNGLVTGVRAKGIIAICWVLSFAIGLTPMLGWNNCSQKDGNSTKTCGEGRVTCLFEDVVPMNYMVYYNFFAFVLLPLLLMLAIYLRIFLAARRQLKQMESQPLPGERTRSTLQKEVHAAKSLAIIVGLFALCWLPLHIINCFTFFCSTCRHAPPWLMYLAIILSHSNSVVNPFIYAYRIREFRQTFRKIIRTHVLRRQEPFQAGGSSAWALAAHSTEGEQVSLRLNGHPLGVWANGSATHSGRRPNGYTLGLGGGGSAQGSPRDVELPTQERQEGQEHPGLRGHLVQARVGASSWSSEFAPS
# Assay Overview: Functional activity against A2a adenosine receptor from rat aorta.
Metric Name: pEC50
Remember, pEC50 is on a log scale: it is -log10 of the molar concentration.

Inquiry: Tell me pEC50 reported for CCNC(=O)[C@H]1OC(n2cnc3c(N)nc(C#Cc4cccs4)nc32)[C@H](O)[C@@H]1O (stereo partly specified)
Reply text: 6.64

---

# Tested On: UniProtKB P30543
pKi: −log10 of the molar value.
The label depends only on pKi: 1.0 if it is at least 7, 0.0 if it is smaller.

[
  {
    "Molecule": "CCNC(=O)[C@H]1OC(n2cnc3c(N)nc(C#Cc4ccc(CC#N)cc4)nc32)[C@H](O)[C@@H]1O (some centres not stated)",
    "Class": 1.0
  },
  {
    "Molecule": "CCNC(=O)[C@H]1OC(n2cnc3c(N)nc(C#CCCc4ccccc4)nc32)[C@H](O)[C@@H]1O (some centres not stated)",
    "Class": 1.0
  },
  {
    "Molecule": "CCNC(=O)[C@H]1OC(n2cnc3c(N)nc(C#CCN4CCN(C)CC4)nc32)[C@H](O)[C@@H]1O (some centres not stated)",
    "Class": 1.0
  },
  {
    "Molecule": "CCNC(=O)[C@H]1OC(n2cnc3c(N)nc(C#Cc4cccc5ccccc45)nc32)[C@H](O)[C@@H]1O (some centres not stated)",
    "Class": 0.0
  },
  {
    "Molecule": "CCNC(=O)[C@H]1OC(n2cnc3c(N)nc(C#Cc4ccc(O)cc4)nc32)[C@H](O)[C@@H]1O (some centres not stated)",
    "Class": 1.0
  }
]

Inquiry: Would you say CCNC(=O)[C@H]1OC(n2cnc3c(N)nc(C#Cc4ccc(CCC(=O)O)cc4)nc32)[C@H](O)[C@@H]1O (some centres not stated) shows pKi at minimum 7?
Reply text: 0.0

Inquiry: Check this molecule for pKi at or above 7: CCNC(=O)[C@H]1OC(n2cnc3c(N)nc(C#Cc4ccc(C(N)=O)cc4)nc32)[C@H](O)[C@@H]1O (some centres not stated)
Reply text: 0.0

Inquiry: Assess whether reported pKi for CCNC(=O)[C@H]1OC(n2cnc3c(N)nc(C#CCn4ccnc4)nc32)[C@H](O)[C@@H]1O (some centres not stated) sits at 7 or higher.
Reply text: 1.0

Inquiry: Has CCNC(=O)[C@H]1OC(n2cnc3c(N)nc(C#Cc4ccc(C)cc4)nc32)[C@H](O)[C@@H]1O (some centres not stated) a recorded pKi greater than or equal to 7?
Reply text: 1.0

Inquiry: Is the recorded value of pKi equal to or greater than 7 for this molecule? CCNC(=O)[C@H]1OC(n2cnc3c(N)nc(C#Cc4cccs4)nc32)[C@H](O)[C@@H]1O (some centres not stated)
Reply text: 1.0

Inquiry: State whether the measured pKi reaches 7, counting equality as reaching it, for CCNC(=O)[C@H]1OC(n2cnc3c(N)nc(C#CCN4CCCCC4)nc32)[C@H](O)[C@@H]1O (some centres not stated)
Reply text: 1.0

Inquiry: Identify whether the reported pKi of the following molecule is 7 or greater: CCNC(=O)[C@H]1OC(n2cnc3c(N)nc(C#Cc4ccc(C=O)cc4)nc32)[C@H](O)[C@@H]1O (some centres not stated)
Reply text: 1.0

Inquiry: In plain terms: is recorded pKi at least 7 for CCNC(=O)[C@H]1OC(n2cnc3c(N)nc(C#CCN4CCSCC4)nc32)[C@H](O)[C@@H]1O (some centres not stated) ?
Reply text: 1.0

Inquiry: Check the entry C#Cc1nc(N)c2ncn([C@@H]3O[C@H](C(=O)NCC)[C@@H](O)[C@H]3O)c2n1 : does pKi equal or exceed 7?
Reply text: 1.0

Inquiry: Item CCNC(=O)[C@H]1OC(n2cnc3c(N)nc(C#Cc4ccc(C(F)(F)F)cc4)nc32)[C@H](O)[C@@H]1O (some centres not stated) with pKi of 7 or above?
Reply text: 0.0

Inquiry: Could you verify whether the entry CCNC(=O)[C@H]1O[C@@H](n2cnc3c(N)nc(C#CCCCc4ccccc4)nc32)[C@H](O)[C@@H]1O shows pKi of no less than 7?
Reply text: 1.0

Inquiry: Quick check, pKi >= 7? CCNC(=O)[C@H]1OC(n2cnc3c(N)nc(C#Cc4nccs4)nc32)[C@H](O)[C@@H]1O (some centres not stated)
Reply text: 1.0

Inquiry: Does the reported pKi for CCNC(=O)[C@H]1OC(n2cnc3c(N)nc(C#Cc4ccccc4C=O)nc32)[C@H](O)[C@@H]1O (some centres not stated) fall at or above the 7 mark?
Reply text: 0.0

---

# pEC50 annotations
# Tested On: Adenosine receptor A1 (Rattus norvegicus)
# Sequence (P25099 whole entry): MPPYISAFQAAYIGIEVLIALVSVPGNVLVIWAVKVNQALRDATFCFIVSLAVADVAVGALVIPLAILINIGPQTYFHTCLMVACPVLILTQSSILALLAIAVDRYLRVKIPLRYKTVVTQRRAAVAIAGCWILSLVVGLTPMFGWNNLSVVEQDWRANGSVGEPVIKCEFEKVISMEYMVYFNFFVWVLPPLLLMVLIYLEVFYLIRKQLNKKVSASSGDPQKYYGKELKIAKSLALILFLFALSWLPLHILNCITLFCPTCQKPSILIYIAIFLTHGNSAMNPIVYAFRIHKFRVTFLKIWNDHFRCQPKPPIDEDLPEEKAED
# Assay Overview: Functional activity against adenosine A1 receptor from rat atria.
pEC50: −log10 of the molar value.

Look over these answered cases.
[
  {
    "Molecule": "CCNC(=O)[C@H]1OC(n2cnc3c(N)nc(C#Cc4ccco4)nc32)[C@H](O)[C@@H]1O (stereo not given in full)",
    "pEC50": "< 5.00"
  },
  {
    "Molecule": "CCNC(=O)[C@H]1OC(n2cnc3c(N)nc(C#Cc4ccc(N)cc4)nc32)[C@H](O)[C@@H]1O (stereo not given in full)",
    "pEC50": "< 5.00"
  },
  {
    "Molecule": "CCNC(=O)[C@H]1OC(n2cnc3c(N)nc(C#Cc4ccc(CCC(=O)O)cc4)nc32)[C@H](O)[C@@H]1O (stereo not given in full)",
    "pEC50": "< 5.00"
  },
  {
    "Molecule": "CCNC(=O)[C@H]1OC(n2cnc3c(N)nc(C#Cc4cccc(C=O)c4)nc32)[C@H](O)[C@@H]1O (stereo not given in full)",
    "pEC50": "< 5.00"
  }
]

Turning to the following molecule.
Inquiry: // fetch pEC50; item: CCNC(=O)[C@H]1OC(n2cnc3c(N)nc(C#Cc4cccnc4)nc32)[C@H](O)[C@@H]1O (stereo not given in full) ; system: Adenosine receptor A1 (Rattus norvegicus)
Reply text: 6.38

---

Here's what we have: EC50 numbers for Adenosine receptor A2a (Rattus norvegicus).
Respond numerically; units are nM and should not be typed.

Some solved entries appear below for comparison.
[
  {
    "Compound": "CCNC(=O)[C@H]1OC(n2cnc3c(N)nc(C#Cc4ccc([N+](=O)[O-])cc4)nc32)[C@H](O)[C@@H]1O (stereo partly specified)",
    "EC50 (nM)": 1210
  },
  {
    "Compound": "CCNC(=O)[C@H]1OC(n2cnc3c(N)nc(C#CCN4CCSCC4)nc32)[C@H](O)[C@@H]1O (stereo partly specified)",
    "EC50 (nM)": 223
  },
  {
    "Compound": "CCNC(=O)[C@H]1OC(n2cnc3c(N)nc(C#Cc4ccccc4C=O)nc32)[C@H](O)[C@@H]1O (stereo partly specified)",
    "EC50 (nM)": 1300
  },
  {
    "Compound": "CCNC(=O)[C@H]1OC(n2cnc3c(N)nc(C#Cc4ccc(CCC(=O)O)cc4)nc32)[C@H](O)[C@@H]1O (stereo partly specified)",
    "EC50 (nM)": 0.008
  },
  {
    "Compound": "CCNC(=O)[C@H]1OC(n2cnc3c(N)nc(C#Cc4ccc(CCC(=O)OC(C)(C)C)cc4)nc32)[C@H](O)[C@@H]1O (stereo partly specified)",
    "EC50 (nM)": 1350
  },
  {
    "Compound": "CCNC(=O)[C@H]1OC(n2cnc3c(N)nc(C#CCn4ccnc4)nc32)[C@H](O)[C@@H]1O (stereo partly specified)",
    "EC50 (nM)": 753
  }
]

Inquiry: Answer briefly: EC50 recorded on Adenosine receptor A2a (Rattus norvegicus) for CCNC(=O)[C@H]1OC(n2cnc3c(N)nc(C#Cc4cccc5ccccc45)nc32)[C@H](O)[C@@H]1O (stereo partly specified)
Reply text: 468

Inquiry: Give measured EC50 for CCNC(=O)[C@H]1OC(n2cnc3c(N)nc(C#Cc4ccc(O)cc4)nc32)[C@H](O)[C@@H]1O (stereo partly specified) (Adenosine receptor A2a (Rattus norvegicus)).
Reply text: 660

Inquiry: Report the value of EC50 obtained on Adenosine receptor A2a (Rattus norvegicus) for CCNC(=O)[C@H]1OC(n2cnc3c(N)nc(C#Cc4ccc(C(N)=O)cc4)nc32)[C@H](O)[C@@H]1O (stereo partly specified) .
Reply text: 6420

Inquiry: For Adenosine receptor A2a (Rattus norvegicus), give the measured EC50 of the entry C#Cc1nc(N)c2ncn([C@@H]3O[C@H](C(=O)NCC)[C@@H](O)[C@H]3O)c2n1
Reply text: 440

Inquiry: State the measured EC50 (Adenosine receptor A2a (Rattus norvegicus)) of CCNC(=O)[C@H]1OC(n2cnc3c(N)nc(C#Cc4nccs4)nc32)[C@H](O)[C@@H]1O (stereo partly specified)
Reply text: 28.7

Inquiry: Provide Adenosine receptor A2a (Rattus norvegicus) EC50 reading for CCNC(=O)[C@H]1OC(n2cnc3c(N)nc(C#CCc4ccccc4)nc32)[C@H](O)[C@@H]1O (stereo partly specified) .
Reply text: 406

Inquiry: Param request: EC50 | system Adenosine receptor A2a (Rattus norvegicus) | item CCNC(=O)[C@H]1OC(n2cnc3c(N)nc(C#Cc4ccc(CC#N)cc4)nc32)[C@H](O)[C@@H]1O (stereo partly specified)
Reply text: 6520

The reported numbers originate from ChEMBL document CHEMBL1128307.
